assay: Bioavailability in ip dosed […] administered twice daily; type: ADME, organism-based; conditions: in vivo
Measure name: bioavailability

Given the compound Cc1cccc(Oc2cnc(=O)[nH]c2)c1 , write its reported bioavailability.
53.9%

----------
assay: Toxicity in ip dosed […] administered twice daily; format: organism-based; details: in vivo
Measure name: MTD (mg/kg)
Numbers only, in mg/kg.

Given the compound Cc1cccc(Oc2cnc(=O)[nH]c2)c1 [TOLIMIDONE] , write its reported MTD.
100

Just for reference, ChEMBL document CHEMBL4627343 is where these values come from.
